# ASSAY_INFO: in vitro
# EXPERIMENTAL_SETUP: mouse, RAW264.7 cells; at 8 µg/mL
viability at 8 ug/mL values by entry
Report as a plain number; the unit % is understood.

Task item: Give its viability at 8 ug/mL value. Item: `COc1ccc([C@@H]2C3=C(O[C@H]2C(=O)c2ccccc2)C(=O)c2ccccc2C3=O)c(F)c1`
Reply: 38

Task item: Same read-out for `O=C1C2=C(C(=O)c3ccccc31)[C@@H](c1ccc(OC(F)(F)F)cc1)[C@H](C(=O)c1ccccc1)O2` ?
Reply: 100

Task item: Next: `COc1c(F)cc([C@@H]2C3=C(O[C@H]2C(=O)c2ccccc2)C(=O)c2ccccc2C3=O)cc1F`
Reply: 64

Task item: Now consider `O=C1C2=C(C(=O)c3ccccc31)[C@@H](c1ccccc1F)[C@H](C(=O)c1ccccc1)O2` .
Reply: 20

* * *

Reported viability at 128 ug/mL values are given for each entry in this list.
# ASSAY_INFO: in vitro
# EXPERIMENTAL_SETUP: mouse, RAW264.7 cells
Numeric only. Scale: %

// worked examples, viability at 128 ug/mL included
GIVEN_SMILES: O=C1C2=C(C(=O)c3ccccc31)[C@@H](c1ccc(O)cc1F)[C@H](C(=O)c1ccccc1)O2
UNIT_SYMBOL: %
viability at 128 ug/mL: 3
//
GIVEN_SMILES: O=C1C2=C(C(=O)c3ccccc31)[C@@H](c1ccc(F)cc1)[C@H](C(=O)c1ccccc1)O2
UNIT_SYMBOL: %
viability at 128 ug/mL: 2
//
GIVEN_SMILES: COc1ccc([C@@H]2C3=C(O[C@H]2C(=O)c2ccccc2)C(=O)c2ccccc2C3=O)c(C(F)(F)F)c1
UNIT_SYMBOL: %
viability at 128 ug/mL: 40
//
GIVEN_SMILES: O=C1C2=C(C(=O)c3ccccc31)[C@@H](c1ccc(Oc3ccc(F)cc3)cc1)[C@H](C(=O)c1ccccc1)O2
UNIT_SYMBOL: %
viability at 128 ug/mL: 29
//
GIVEN_SMILES: O=C1C2=C(C(=O)c3ccccc31)[C@@H](c1ccc(OC(F)F)c(O)c1)[C@H](C(=O)c1ccccc1)O2
UNIT_SYMBOL: %
viability at 128 ug/mL: 2

Task item: State the recorded viability at 128 ug/mL for this entry: `COc1ccc([C@@H]2C3=C(O[C@H]2C(=O)c2ccccc2)C(=O)c2ccccc2C3=O)cc1F`
Reply: 38

Task item: // query: `O=C1C2=C(C(=O)c3ccccc31)[C@@H](c1ccc(O)c(F)c1)[C@H](C(=O)c1ccccc1)O2`
Reply: 4

Task item: Another compound to check: `O=C1C2=C(C(=O)c3ccccc31)[C@@H](c1ccccc1F)[C@H](C(=O)c1ccccc1)O2`
Reply: 0
